# System: SW1088 (Low Grade Glioma)
# ASSAY METHOD TEXT: combination Emax (second highest fraction inhibited in the dose matrix, 72 h); higher = more inhibition; extreme values may be limits of the assay
Reported combination Emax values follow for various compounds
ASSAY ENDPOINT: combination Emax

COMPOUND	SYSTEM NAME	NUMERIC RESULT
C[C@@H](c1ccc2nccn2c1)n1nnc2ncc(-c3cnn(C)c3)nc21 [Savolitinib] + Cc1c2c(nn1C)CSCc1cc(n(C)n1)CSc1cc(c3ccccc3c1)OCCCc1c(C(=O)O)n(C)c3c-2c(Cl)ccc13 [AZD5991] (first compound max 1 µM, 7x7, partner max 1 µM)	SW1088 (Low Grade Glioma)	0.261
C[C@@H](Nc1cc(F)cc(F)c1)c1cc(C(=O)N(C)C)cc2c(=O)cc(N3CCOCC3)oc12 [AZD8186] + CC(=O)c1c(C)c2cnc(Nc3ccc(N4CCNCC4)cn3)nc2n(C2CCCC2)c1=O [Palbociclib] (first compound max 10 µM, 7x7, partner max 10 µM)	SW1088 (Low Grade Glioma)	0.724
Cc1c2c(nn1C)CSCc1cc(n(C)n1)CSc1cc(c3ccccc3c1)OCCCc1c(C(=O)O)n(C)c3c-2c(Cl)ccc13 [AZD5991] + CC1(C)CCC(CN2CCN(c3ccc(C(=O)NS(=O)(=O)c4ccc(NCC5CCOCC5)c([N+](=O)[O-])c4)c(Oc4cnc5[nH]ccc5c4)c3)CC2)=C(c2ccc(Cl)cc2)C1 [Venetoclax] (first compound max 1 µM, 7x7, partner max 1 µM)	SW1088 (Low Grade Glioma)	0.248
Cc1cc2ncnn2cc1Nc1ncc2c(n1)n(C1CCOCC1)c(=O)n2C [AZD7648] + O=C(c1cc(Cc2n[nH]c(=O)c3ccccc23)ccc1F)N1CCN(C(=O)C2CC2)CC1 [Olaparib] (first compound max 10 µM, 7x7, partner max 10 µM)	SW1088 (Low Grade Glioma)	0.303

----------
# Tested on: DB (B-Cell Non-Hodgkin's Lymphoma)
# ASSAY METHOD TEXT: Bliss excess, mean over the matrix (fraction); higher = more synergy
# label = true (1) if Bliss excess >= -0.02 else false (0)

MOLECULE	LABEL
CCN(CCO)CCCOc1ccc2c(Nc3cc(CC(=O)Nc4cccc(F)c4)[nH]n3)ncnc2c1 [AZD2811] + C=CCn1c(=O)c2cnc(Nc3ccc(N4CCN(C)CC4)cc3)nc2n1-c1cccc(C(C)(C)O)n1 [AZD1775] (first compound max 1 µM, partner max 1 µM)	true (1)
COc1cccc(OCCCN)c1-c1cc(Nc2cnc(C#N)cn2)n[nH]1 [Prexasertib] + CCc1c2c(nc3ccc(O)cc13)-c1cc3c(c(=O)n1C2)COC(=O)[C@]3(O)CC [SN-38] (first compound max 1 µM, 7x7, partner max 0.3 µM)	false (0)
Cc1nc(Nc2ncc(C(=O)Nc3c(C)cccc3Cl)s2)cc(N2CCN(CCO)CC2)n1 [Dasatinib] + CC(=O)Nc1cccc(-n2c(=O)n(C3CC3)c(=O)c3c(Nc4ccc(I)cc4F)n(C)c(=O)c(C)c32)c1 [Trametinib] (first compound max 2 µM, 7x7, partner max 1 µM)	true (1)
CN(CCO)CC[C@H](CSc1ccccc1)Nc1ccc(S(=O)(=O)NC(=O)c2ccc(N3CCC([C@@H](O)c4ccccc4-c4ccc(Cl)cc4)CC3)cc2)cc1S(=O)(=O)C(F)(F)F [AZD4320] + CN(C)CCCOc1ccc(-c2ccc3ncc4c(c3c2)n(C2CCOCC2)c(=O)n4C)cn1 [AZD0156] (first compound max 1 µM, 7x7, partner max 1 µM)	true (1)
CN(CCO)CC[C@H](CSc1ccccc1)Nc1ccc(S(=O)(=O)NC(=O)c2ccc(N3CCC([C@@H](O)c4ccccc4-c4ccc(Cl)cc4)CC3)cc2)cc1S(=O)(=O)C(F)(F)F [AZD4320] + Nc1ccn([C@@H]2O[C@H](CO)[C@@H](O)C2(F)F)c(=O)n1 [Gemcitabine] (first compound max 1 µM, 7x7, partner max 0.3 µM)	false (0)
C[C@@H]1COCCN1c1cc(C2([S@](C)(=N)=O)CC2)nc(-c2ccnc3[nH]ccc23)n1 [AZD6738] + Nc1ccn([C@@H]2O[C@H](CO)[C@@H](O)C2(F)F)c(=O)n1 [Gemcitabine] (first compound max 10 µM, 7x7, partner max 0.3 µM)	true (1)
CCN(CCO)CCCOc1ccc2c(Nc3cc(CC(=O)Nc4cccc(F)c4)[nH]n3)ncnc2c1 [AZD2811] + O=C(c1cc(Cc2n[nH]c(=O)c3ccccc23)ccc1F)N1CCN(C(=O)C2CC2)CC1 [Olaparib] (first compound max 1 µM, 7x7, partner max 10 µM)	false (0)
